Below are pKi measurements against Muscarinic acetylcholine receptor M2 (Homo sapiens) drawn from the literature.
Target: Muscarinic acetylcholine receptor M2 (Homo sapiens)
Sequence (P08172 whole entry): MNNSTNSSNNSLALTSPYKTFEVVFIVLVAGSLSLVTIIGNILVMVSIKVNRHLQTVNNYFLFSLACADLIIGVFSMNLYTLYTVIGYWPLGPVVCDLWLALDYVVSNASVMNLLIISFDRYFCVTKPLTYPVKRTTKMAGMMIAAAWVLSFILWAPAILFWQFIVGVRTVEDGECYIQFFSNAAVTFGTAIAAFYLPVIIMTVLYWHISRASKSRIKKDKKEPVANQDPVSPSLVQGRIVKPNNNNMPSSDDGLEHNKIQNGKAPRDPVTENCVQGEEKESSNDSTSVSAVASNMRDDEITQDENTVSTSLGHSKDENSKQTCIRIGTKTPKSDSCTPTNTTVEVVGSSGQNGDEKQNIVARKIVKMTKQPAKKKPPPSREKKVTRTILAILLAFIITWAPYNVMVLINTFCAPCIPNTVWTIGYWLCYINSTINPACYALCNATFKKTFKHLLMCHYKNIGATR
Quick note: pKi values are minus log10 of concentrations in mol/L.

Worked examples, 10 compounds total:
compound	measured
C#CCCCCCCN1CCC(OC(=O)Nc2ccc(F)cc2-c2ccc(F)c(Cl)c2)CC1	8.10
CC(C)(C)NC(=O)c1ccc(CC2CCN(C3CCN(C(=O)c4ccc(F)c5ccccc45)CC3)CC2)cc1	7.74
COc1ccccc1C(O)C1=CN2CCC1CC2 (stereo not drawn)	5.66
O=C(CCN1CCCc2ccccc21)N1CCCC(O)C1 (stereo not drawn)	5.21
CCOC(=O)N(CC)CCCCC1CCN(CC(=O)N2c3ccccc3NC(=O)c3ccccc32)CC1	7.43
CC(=O)c1ccc(C2=CN3CCC2CC3)s1	5.81
C[N+]1(CC#CCOC2=NOCC2)CCc2ccccc2C1 (stereo not drawn)	6.32
CCCC(C1=C(CCN(C)C)Cc2ccccc21)c1ccccn1 (stereo not drawn)	6.17
CC(C1=C(CN(C)C(C)C)Cc2ccccc21)c1ccccn1 (stereo not drawn)	7.29
CN1CCC=C(c2nsnc2OCCCCCCCCCOc2nsnc2C2=CCCN(C)C2)C1	8.50

Request: Complete the entry with pKi for `N=C(N)NCCC[C@@H](N)C(=O)NCCN1CCN(CCCC2CCN(CC(=O)N3c4ccccc4NC(=O)c4ccccc43)CC2)CC1`
Result: 9.23

---

Below are pKi measurements against Muscarinic acetylcholine receptor M2 (Homo sapiens, UniProt P08172) drawn from the literature.
Quick note: pKi values are minus log10 of concentrations in mol/L.

Worked examples, 3 molecules total:
molecule	pKi
COc1ccc2c(c1)C(C(C)c1ccccn1)=C(CCN(C)C)C2 (centres undefined)	5.99
CO/N=C/C1=CCCN(C)C1	6.00
C=C(c1ccc(S(=O)(=O)c2ccc(OC)cc2)cc1)C1CCN(C2CCN(C(=O)OC)CC2)CC1	9.00

Please turn your attention to the following entry.
Request: State pKi (Muscarinic acetylcholine receptor M2 (Homo sapiens, UniProt P08172)) of `CN1/C(=C/C=C/C=C/C2=[N+](CCCCCC(=O)NCCCCCCCCN3CCC(COC(=O)Nc4ccc(F)cc4-c4ccc(F)c(Cl)c4)CC3)c3ccccc3C2(C)C)C(C)(C)c2ccccc21` .
Result: 8.96
